experiment: Metabolic stability in rat liver microsomes assessed compound remaining measured after 10 mins in presence of NADPH; format: ADME, Microsome; details: read-out: Stability
Threshold 60%: remaining at 10 min strictly smaller gives Satisfied, otherwise Not satisfied.

Worked cases, answers included:
SMILES_NOTATION	ASSIGNED_LABEL
c1cnc2c(c1)CN[C@@H](CN(CCCCN(C1COC1)C1COC1)[C@H]1CCCc3cccnc31)C2	Not satisfied
NCCCCN(C[C@H]1Cc2cccnc2CN1)[C@H]1CCCc2cccnc21	Satisfied
NCCCCN(C[C@@H]1Cc2ncccc2CN1)[C@H]1CCCc2cccnc21	Satisfied
CN(CCCCN(C[C@H]1Cc2ncccc2CN1)[C@H]1CCCc2cccnc21)C1CCOCC1	Not satisfied

Now, please, on to the next compound.
Query: Please indicate whether the reported remaining at 10 min of CN(C[C@H]1Cc2ncccc2CN1)[C@H]1CCCc2cccnc21 is strictly below 60%.
Reply: Satisfied
